target: RSV prefusion F (preF), DS-Cav1 (respiratory syncytial virus, UniProt P03420 26-513); assay: BLI, IgG on sensor, 100 nM antigen
Item-by-item account of pKd
Keep in mind that pKd stands for -log10 of concentration in molar terms.

{"binder": "ADI-41416 (antibody, V domains shown, IgG1) VH: EVQLVESGGGLVKPGGSLRLSCAASGFKFSSYTMNWVRQAPGKGLEWVSSITGGSSFINYADSVKGRFTISRDNAKNSLYLQMVSLRAEDTAVYYCARDLSSHITIFGAVSDYWGRGTTVTVSS VL: QSVLTQPPSVSGAPGQRVTISCTGSSSNIGAGYDAHWFQQLPGSAPKLLIYANTNRPSGVPDRFSGSKSGTSASLAITGLQAEDEADYYCQSYDSTLSVVFGGGTKLTVL", "reported_endpoint": "pKd", "numeric_readout": 9.35}
{"binder": "ADI-41419 (antibody, V domains shown, IgG1) VH: EVQLVESGGGLVQPGRSLRLSCAASGFTFDDYAMHWVRQAPGKGLEWVSGISWNSGSVGYSDSVKGRFTISRDNAKSSLYLQMNNLRAEDTALYYCARDMAHTQDYFDTSEYDSWGQGTLVTVSS VL: QPVLTQPASVSGSPGQSITISCTGTSSDIGAYNYVSWYQQHPGKAPKLVVYEVNNRPSGISNRFSGSKSGNTASLTISGLQAEDEADYYCSSYTVSATLVFGGGTKLTVL", "reported_endpoint": "pKd", "numeric_readout": 9.52}

Now consider a different binder.
Request: Recorded pKd of ADI-41389 (antibody, V domains shown, IgG1; also called Ab 683) VH: EVQLVESGGGVVQPGRSLRLSCAASGFTFSNYAIHWVRQAPGKGLEWVAAISYDGGNKFYADSVKGRFTISRDNSRNTLYLQMNSLRPEDTAVYYCARDRWELNYGIDVWGQGTTVTVSS VL: SYELMQPPSVSVSPGQTARITCSGDALPKQYAYWYQQKPGQAPVLVIYKDSERPSGIPERFSGSTSGTTVTLTISGVQAEDEADYYCQSADSSSTFFYVFGTGTKLTVL , please.
Response: 8.59

Sourced from patent US20260258115A1
